test: observed phase transition temperature of phospholipids; format: physicochemical; conditions: phospholipid
# label = satisfied if observed phase transition temperature >= 40 °C else not satisfied

>  <compound>
CCCCCCCCCCCCCCCC(=O)OCC(COP(=O)([O-])OCC[N+](C)(C)C)OC(=O)CCCCCCCCCCCCC (stereo not drawn) [PMPC, palmitoylmyristoylphosphatidyl choline]

>  <label>
not satisfied

$$$$
>  <compound>
CCCCCCCCCCCCCCCC(=O)OCC(COP(=O)(O)OCCN)OC(=O)CCCCCCCCCCCCCCC (stereo not drawn) [DPPE, dipalmitoylphosphatidyl ethanolamine]

>  <label>
satisfied

$$$$
>  <compound>
CCCCCCCCCCCCCCCCCC(=O)OCC(COP(=O)(O)OCC(N)C(=O)O)OC(=O)CCCCCCCCCCCCCCCCC (stereo not drawn) [DSPS, distearoylphosphatidyl serine]

>  <label>
satisfied

$$$$
>  <compound>
CCCCCCCCCCCCCCCC(=O)OC(COC(=O)CCCCCCCCCCCCC)COP(=O)([O-])OCC[N+](C)(C)C (stereo not drawn) [MPPC, myristoylpalmitoylphosphatidyl choline]

>  <label>
not satisfied

$$$$
>  <compound>
CCCCCCCCCCCCCC(=O)OCC(COP(=O)(O)OCC(O)CO)OC(=O)CCCCCCCCCCCCC (stereo not drawn) [DMPG, dimyristoylphosphatidyl glycrine]

>  <label>
not satisfied

$$$$

###

assay: observed phase transition temperature of phospholipids; assay type: physicochemical; settings: phospholipid

>  <molecule>
CCCCCCCCCCCCCCCC(=O)OCC(COP(=O)(O)OCC(N)C(=O)O)OC(=O)CCCCCCCCCCCCCCC (stereo not drawn)

>  <unit.annotation>
°C

>  <observed phase transition temperature>
51

$$$$
>  <molecule>
CCCCCCCCCCCCCC(=O)OCC(COP(=O)(O)OCCN)OC(=O)CCCCCCCCCCCCC (stereo not drawn)

>  <unit.annotation>
°C

>  <observed phase transition temperature>
50

$$$$
